Reported solubility is given for each of the following compounds.
Test: Solubility of the compound
Format: physicochemical
The response must be a number in µM with no trailing unit.

Worked set:
What does the record list as solubility for CCn1ncc2c(C(=O)Nc3ccc4[nH]ncc4c3)cc(C3CC3)nc21 ?
23

Form field: reported solubility of COc1ccc(-c2c3c(cc(C)[n+]2[O-])oc2ccc(OC)cc23)cc1
42

// solubility lookup, key: CCn1ncc2c(C(=O)N(C)c3ccc4nn(C)cc4c3)cc(C3CC3)nc21
94

If you can, please state the reported solubility value of CCn1ncc2c(C(=O)Nc3ccc4nn(C)cc4c3)cc(C3CC3)nc21 .
2

Tell me the measured solubility of COc1ccc2oc3cc(C)[n+]([O-])c(-c4ccccc4)c3c2c1 , please.
15

---
Field request: solubility | item: CCn1cc2cc(NC(=O)c3cc(C4CC4)nc4c3cnn4CC)ccc2n1
32

Return reported solubility; argument: CC(C)n1ncc2c(C(=O)Nc3ccc4nn(C)cc4c3)cc(C3CC3)nc21
3

Give the measured solubility of CCn1ncc2c(C(=O)Nc3ccc4ncccc4c3)cc(C3CC3)nc21 .
13

// solubility lookup, key: CC(C)n1ncc2c(C(=O)Nc3ccc4nccnc4c3)cc(C3CC3)nc21
2

====

Target: S-adenosylmethionine synthase isoform type-2 (Homo sapiens)
Assay: Inhibition of recombinant human MAT2A
RECORDED_ENDPOINT: pIC50
# log scale: pIC50 equals minus log10 of the concentration in mol/L

Look at this molecule and give its reported pIC50. CCn1ncc2c(C(=O)Nc3ccc4ncn(C)c4c3)cc(C3CC3)nc21
6.69

Next:
What does the record list as pIC50 for CC(C)n1ncc2c(C(=O)Nc3ccc4nn(C)cc4c3)cc(C3CC3)nc21 ?
6.39

What value of pIC50 has been reported for the following molecule? COc1ccc(-c2c3c(cc(C)[n+]2[O-])oc2ccc(OC)cc23)cc1
6.84

Which value of pIC50 has been reported for CCn1ncc2c(C(=O)Nc3ccc4c(c3)ncn4C)cc(C3CC3)nc21 in the records?
6.52

Consider the molecule shown here: CCn1ncc2c(C(=O)Nc3ccc4nn(C)cc4c3)cc(C3CC3)nc21 What is its recorded pIC50?
7.11

Using the record for CCn1ncc2c(C(=O)Nc3ccc4[nH]ncc4c3)cc(C3CC3)nc21 , report its pIC50.
6.33

For CCn1ncc2c(C(=O)Nc3ccc4nn(C)c(C)c4c3)cc(C3CC3)nc21 , what is its reported pIC50?
7.05

Item under review: CCn1ncc2c(C(=O)Nc3ccc4ncsc4c3)cc(C3CC3)nc21 . Reported pIC50?
6.76

For the molecule shown here, CC(C)n1ncc2c(C(=O)Nc3ccc4ncccc4c3)cc(C3CC3)nc21 , give the reported pIC50.
5.43

====

System: HCT-116
Test: Antiproliferative activity against MTAP-/- isogenic variant of human HCT-116 cells assessed as inhibition of cell growth by proliferation assay
Format: functional, cell-based
RECORDED_ENDPOINT: pIC50
Lab note — pIC50 values are minus log10 of concentrations in M.

Which measured pIC50 value corresponds to CCn1ncc2c(C(=O)Nc3ccc4ncn(C)c4c3)cc(C3CC3)nc21 ?
5.14

Given the entry CCn1cc2cc(NC(=O)c3cc(C4CC4)nc4c3cnn4CC)ccc2n1 , report its measured pIC50.
5.62

Continuing:
What value of pIC50 has been reported for the following molecule? CCn1ncc2c(C(=O)Nc3ccc(OC)cc3)cc(C3CC3)nc21
5.28

What value of pIC50 has been recorded for this entry: CCn1ncc2c(C(=O)Nc3ccc4nn(C)c(C)c4c3)cc(C3CC3)nc21
5.50

# input molecule: CCn1ncc2c(C(=O)Nc3ccc4nn(C)cc4c3)cc(C3CC3)nc21 ; wanted: its pIC50
5.77

====

compounds and their reported solubility
Test: Solubility of the compound
Assay type: physicochemical
Form entry: value (µM) — number only.

Give its solubility value. Item: CC(C)n1ncc2c(C(=O)Nc3ccc4n[nH]cc4c3)cc(C3CC3)nc21
19

I'd like to know its solubility. The compound in question is CCn1ncc2c(C(=O)Nc3ccc4nn(C)c(C)c4c3)cc(C3CC3)nc21
9

For the compound shown here, CCCCn1ncc2c(C(=O)Nc3ccc4nn(C)cc4c3)cc(C3CC3)nc21 , give the reported solubility.
4

Given COc1ccc2oc3cc(C)[n+]([O-])c(-c4ccc(Cl)cc4)c3c2c1 , state its recorded solubility.
14

Reported solubility, compound CCn1ncc2c(C(=O)Nc3ccc4ncsc4c3)cc(C3CC3)nc21 : ____
1

Further cases:
Give the measured solubility of CCn1ncc2c(C(=O)Nc3ccc(OC)cc3)cc(C3CC3)nc21 .
3

# solubility lookup, item CC(C)n1ncc2c(C(=O)Nc3ccc4ncccc4c3)cc(C3CC3)nc21
4

I would be grateful if you could share the reported solubility for COc1ccc2oc3cc(C)[n+]([O-])c(-c4ccc(C)cc4)c3c2c1 .
11

Suppose we examine the compound CCn1ncc2c(C(=O)Nc3ccc4c(c3)ncn4C)cc(C3CC3)nc21 ; what solubility value has been reported?
47

Can you share its solubility? I mean this compound: CCn1ncc2c(C(=O)Nc3ccc4ncn(C)c4c3)cc(C3CC3)nc21
49

====

Target: S-adenosylmethionine synthase isoform type-1 (Homo sapiens, UniProt Q00266)
Sequence (Q00266 whole entry, canonical isoform): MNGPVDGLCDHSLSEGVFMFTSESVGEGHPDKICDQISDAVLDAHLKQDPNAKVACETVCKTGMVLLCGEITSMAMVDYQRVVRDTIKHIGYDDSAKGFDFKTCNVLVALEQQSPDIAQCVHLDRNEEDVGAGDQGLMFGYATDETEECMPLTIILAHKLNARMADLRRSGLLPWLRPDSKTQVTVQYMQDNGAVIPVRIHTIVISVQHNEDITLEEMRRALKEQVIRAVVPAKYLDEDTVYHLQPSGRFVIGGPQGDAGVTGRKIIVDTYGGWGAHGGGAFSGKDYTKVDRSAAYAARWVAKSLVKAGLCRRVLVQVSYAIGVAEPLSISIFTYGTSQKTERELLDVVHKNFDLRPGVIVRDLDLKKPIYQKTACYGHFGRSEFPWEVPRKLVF
Test: Inhibition of human MAT1A
RECORDED_ENDPOINT: IC50 (nM)
Your answer should be a plain number; it is taken to be in nM.

Could you share which IC50 value was measured for O=c1nc(N2CC[C@@H](F)C2)c2ccc(Cl)cc2n1-c1ccccc1 ?
813

====

Biological target: S-adenosylmethionine synthase isoform type-2 (Homo sapiens)
Assay: Inhibition of recombinant human MAT2A
Overview of recorded pIC50 for various molecules
Scale: negative log10 of molar concentration, which is what pIC50 denotes.

Notebook: pull reported pIC50 for S-adenosylmethionine synthase isoform type-2 (Homo sapiens), entry COc1ccc2oc3cc(C)[n+]([O-])c(-c4ccc(Cl)cc4)c3c2c1
6.91

Item: CCn1ncc2c(C(=O)Nc3ccc4ncccc4c3)cc(C3CC3)nc21 Test system: S-adenosylmethionine synthase isoform type-2 (Homo sapiens) Read-out: pIC50 Value: ?
6.56

Which pIC50 is reported with S-adenosylmethionine synthase isoform type-2 (Homo sapiens) for this entry: CCn1ncc2c(C(=O)Nc3ccc(OC)cc3)cc(C3CC3)nc21 ?
6.89

Here is the next item to consider.
What pIC50 appears in the records for this molecule with S-adenosylmethionine synthase isoform type-2 (Homo sapiens)? CC(C)n1ncc2c(C(=O)Nc3ccc4n[nH]cc4c3)cc(C3CC3)nc21
5.74

====

Test system: HCT-116
Assay: Antiproliferative activity against MTAP-/- isogenic variant of human HCT-116 cells assessed as inhibition of cell growth by proliferation assay
Type: functional, cell-based
RECORDED_ENDPOINT: IC50 (µM)
Please respond with the number in µM and leave the unit unwritten.

Study these solved cases before continuing.
Fill in the recorded IC50 for this compound, with HCT-116 as test system: COc1ccc2oc3cc(C)[n+]([O-])c(-c4ccc(Cl)cc4)c3c2c1
3.12

// fetch HCT-116 IC50 for COc1ccc2oc3cc(C)[n+]([O-])c(-c4ccc(C)cc4)c3c2c1
4.96

Request - read-out IC50 | tested on HCT-116 | compound CCn1ncc2c(C(=O)Nc3ccc4ncccc4c3)cc(C3CC3)nc21
6.41

Notebook entry, HCT-116 assay: IC50 of CCn1ncc2c(C(=O)Nc3ccc4ncsc4c3)cc(C3CC3)nc21 = ?
3.86

Form field - read-out: IC50; system: HCT-116; submitted item: CCn1ncc2c(C(=O)Nc3ccc4c(c3)ncn4C)cc(C3CC3)nc21
9.96

Field: next compound
Reported IC50 for HCT-116, given COc1ccc(-c2c3c(cc(C)[n+]2[O-])oc2ccc(OC)cc23)cc1 ?
7.55

====

Biological target: S-adenosylmethionine synthase isoform type-2 (Homo sapiens, UniProt P31153)
Sequence (P31153 whole entry, canonical isoform): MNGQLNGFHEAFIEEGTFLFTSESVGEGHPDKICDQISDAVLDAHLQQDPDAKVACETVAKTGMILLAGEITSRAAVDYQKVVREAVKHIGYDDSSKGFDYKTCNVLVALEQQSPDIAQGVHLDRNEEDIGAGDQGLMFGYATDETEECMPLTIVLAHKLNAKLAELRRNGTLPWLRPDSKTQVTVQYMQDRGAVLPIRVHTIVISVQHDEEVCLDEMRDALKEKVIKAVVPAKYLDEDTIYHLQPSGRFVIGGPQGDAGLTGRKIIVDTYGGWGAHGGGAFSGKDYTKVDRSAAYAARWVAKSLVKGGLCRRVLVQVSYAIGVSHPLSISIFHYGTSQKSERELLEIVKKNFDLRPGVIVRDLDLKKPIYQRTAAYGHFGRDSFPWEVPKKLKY
Assay: Inhibition of recombinant human MAT2A
Overview of reported pIC50 across a group of compounds:
Answer as the number alone; pIC50 is minus log10 of concentration in mol/L.

Entry COc1ccc2oc3cc(C)[n+]([O-])c(-c4ccc(C)cc4)c3c2c1 has what pIC50?
7.29

// pIC50 lookup, key: CCn1cc2cc(NC(=O)c3cc(C4CC4)nc4c3cnn4CC)ccc2n1
7.17

Others:
Consider the compound shown here: COc1ccc2oc3cc(C)[n+]([O-])c(-c4ccccc4)c3c2c1 What is its recorded pIC50?
5.88

====

Biological target: S-adenosylmethionine synthase isoform type-2 (Homo sapiens, UniProt P31153)
Experiment: Inhibition of recombinant human MAT2A
RECORDED_ENDPOINT: IC50

Record request: IC50 value, item CC(C)n1ncc2c(C(=O)Nc3ccc4nccnc4c3)cc(C3CC3)nc21
> 10 µM

Tell me the measured IC50 of CCn1ncc2c(C(=O)N(C)c3ccc4nn(C)cc4c3)cc(C3CC3)nc21 , please.
> 10 µM

Now look at this one.
So what does the record say about IC50 for CCCCn1ncc2c(C(=O)Nc3ccc4nn(C)cc4c3)cc(C3CC3)nc21 ?
> 10 µM
